- System: PPARg:RXRa 90nM:30nM, anti-RXR (NR concentration 90 nM, RXRa partner concentration 30 nM)
- runDescription: PBM binding z-score (relative to random genomic background probes); higher = stronger binding; sequences stand for … in GC…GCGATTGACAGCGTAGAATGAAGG
We use 5 as the dividing line for PBM binding z-score: on or above the line is criterion met, below is criterion not met.

Please review the entries below; each comes with its answer.
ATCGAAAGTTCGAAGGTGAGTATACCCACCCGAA :: criterion not met
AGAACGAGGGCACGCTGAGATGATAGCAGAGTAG :: criterion not met
CGAACTAGGTCAAGAACAGTGAATCTCCGCACGC :: criterion met
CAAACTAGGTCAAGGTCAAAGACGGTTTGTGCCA :: criterion met
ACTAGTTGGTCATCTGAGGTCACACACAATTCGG :: criterion not met

Exam item: Item CCGACTGGGACAGAAAGGTTACCATACCATCCGG with PBM binding z-score of 5 or above?
Marked response: criterion not met

Exam item: Item CCGACTGGGGCAAAGGTTAGCATACTCAGTACGA with PBM binding z-score of 5 or above?
Marked response: criterion met

Exam item: Item TCTTGTAGATCAACAGCAGGTTAAGAAAGATCGA with PBM binding z-score of 5 or above?
Marked response: criterion not met

Exam item: Item TTACCAAGGTGAAGGTCGTTGTTCCCTCTGTAGA with PBM binding z-score of 5 or above?
Marked response: criterion not met

Exam item: Item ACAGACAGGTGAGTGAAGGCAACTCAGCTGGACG with PBM binding z-score of 5 or above?
Marked response: criterion not met

Exam item: Item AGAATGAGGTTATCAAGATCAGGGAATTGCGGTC with PBM binding z-score of 5 or above?
Marked response: criterion not met

====

- System: PPARg:RXRa 90nM:30nM, anti-RXR (NR concentration 90 nM, RXRa partner concentration 30 nM)
- runDescription: PBM binding z-score (relative to random genomic background probes); higher = stronger binding; sequences stand for … in GC…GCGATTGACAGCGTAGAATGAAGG
measurementType: PBM binding z-score
Simply state the number, no unit and no words.

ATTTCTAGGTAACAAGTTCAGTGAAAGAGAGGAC :: 3.09

Exam item: Look up PBM binding z-score: CGTCCAAGGTCAAGGTCAGAGAAAGAGACTCGAA
Marked response: 5.02

Exam item: Look up PBM binding z-score: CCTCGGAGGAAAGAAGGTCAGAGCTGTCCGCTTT
Marked response: 0.12

Exam item: Look up PBM binding z-score: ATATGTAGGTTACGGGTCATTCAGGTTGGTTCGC
Marked response: 8.55

Exam item: Look up PBM binding z-score: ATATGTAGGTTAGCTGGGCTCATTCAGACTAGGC
Marked response: 1.5

Exam item: Look up PBM binding z-score: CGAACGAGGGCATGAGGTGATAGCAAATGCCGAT
Marked response: 1.49

====

- System: PPARg:RXRa DBDmut IVT, anti-RXR (DBD mutation: RXRa K156A/R161A, NR concentration 270 nM, RXRa partner concentration 90 nM)
- runDescription: PBM binding z-score (relative to random genomic background probes); higher = stronger binding; sequences stand for … in GC…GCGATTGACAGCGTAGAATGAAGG
We use 3 as the dividing line for PBM binding z-score: on or above the line is Criterion met, below is Criterion not met.

Please review the entries below; each comes with its answer.
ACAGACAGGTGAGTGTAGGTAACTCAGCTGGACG :: Criterion not met
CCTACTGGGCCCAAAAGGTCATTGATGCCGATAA :: Criterion not met
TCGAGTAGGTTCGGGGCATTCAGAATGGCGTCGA :: Criterion not met
CCTTATGGGTCACTCCAGGTTATAGCATCGGAGT :: Criterion met
AATACAGGGCCACTAGGCCAGAGTAGGTACGAAT :: Criterion not met

Exam item: Item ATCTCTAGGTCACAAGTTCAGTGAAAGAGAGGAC with PBM binding z-score of 3 or above?
Marked response: Criterion met

Exam item: Item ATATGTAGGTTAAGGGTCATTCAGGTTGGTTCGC with PBM binding z-score of 3 or above?
Marked response: Criterion met

Exam item: Item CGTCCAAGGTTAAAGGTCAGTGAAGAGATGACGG with PBM binding z-score of 3 or above?
Marked response: Criterion not met

Exam item: Item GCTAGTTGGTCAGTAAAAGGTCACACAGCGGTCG with PBM binding z-score of 3 or above?
Marked response: Criterion not met

Exam item: Item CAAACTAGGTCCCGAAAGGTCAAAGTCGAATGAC with PBM binding z-score of 3 or above?
Marked response: Criterion met
